Values compiled from PubChem BioAssay.

I'd appreciate it if you could supply composite z-score values for the items below.
# system tested: Alpha-bungarotoxin (Bungarus multicinctus)
# measurement description: alpha-bungarotoxin binders on microarray, profiling panel, artefact control for SMM control protein annotation, biochemical, small-molecule microarray, Alexa647 label, 635/667 nm fluorescence (AID 1117)
# applied conditions: alpha-BTX-A647 binding fluorescence, higher = more signal
Numbers only.

Parameters: items (list). Returns: composite z-score for each item.
1. C[C@@H](OCc1ccccc1)C1NC(=O)[C@@]23C(=O)N[C@@H](Cc4ccccc4)C2[C@H](C)[C@@]2(C)O[C@H]2C3/C=C/C/C=C\CNC(=O)[C@H](Cc2ccccc2)NC1=O (stereo not given in full)
2. CN1C(=O)[C@]2(CCS(=O)(=O)c3ccccc3)N=C(c3ccc(OCCCO)cc3)O[C@@H]2c2ccccc21
3. CC(C)C[C@H]1NC(=O)[C@@]23C(=O)N[C@@H](Cc4ccccc4)C2[C@H](C)[C@@]2(C)O[C@H]2C3/C=C/C/C=C\CNC(=O)[C@@H]2CCCN2C1=O (stereo not given in full)
4. O=C1C2C=CC(C(O)c3ccc([N+](=O)[O-])cc3)N(Nc3ccccc3)C2C(=O)N1c1ccccc1 (stereo not given)
5. Cc1c(-c2ccc(-c3ccc(Cl)c(Cl)c3)o2)nc(-c2ccccc2)c2c1CO[Si]2(C(C)C)C(C)C
6. CCCCN1CC=CC23O[C@@H]4C=CCOC(=O)[C@@H]4[C@H]2C(=O)N(C(CO)C(C)C)[C@@H]3C1=O (stereo not given in full)

// result
1. -0.753
2. 0.836
3. 0.288
4. -0.0428
5. -0.0982
6. -0.843
